Below, each entry is listed with its recorded zone of inhibition at 100 µg/mL.
Tested on: Candida albicans
measurement.notes: Antifungal activity against Candida albicans MTCC 227 at 100 ug/ml after 48 hrs by agar well diffusion method
Type: functional
experimental.conditions: MTCC 227, 48 h, read-out: IZ
The answer consists of two parts: a number and, after it, its unit.

Record excerpt, results attached:
| substance.smiles | measured.metric | recorded.result |
| --- | --- | --- |
| N#CC#Cc1ccc(Cl)nc1 | zone of inhibition at 100 µg/mL | 40 mm |
| Cc1ccccc1C#CC#N | zone of inhibition at 100 µg/mL | 0 mm |
| CCOC(=O)C#Cc1ccccc1C | zone of inhibition at 100 µg/mL | 0 mm |
| N#CC(C(=O)c1ccco1)=P(c1ccccc1)(c1ccccc1)c1ccccc1 | zone of inhibition at 100 µg/mL | 0 mm |
| CC(C)OC(=O)C#Cc1ccc(Cl)nc1 | zone of inhibition at 100 µg/mL | 19 mm |

We next turn to a different compound, shown below.
Observed zone of inhibition at 100 µg/mL, Candida albicans, CC(C)OC(=O)C(C(=O)C(C)(C)C)=P(c1ccccc1)(c1ccccc1)c1ccccc1 : 0 mm

* * *

Below, each entry is listed with its recorded zone of inhibition at 50 µg/mL.
System: Aspergillus flavus
measurement.notes: Antifungal activity against Aspergillus flavus MTCC 277 at 50 ug/ml after 48 hrs by agar well diffusion method
Format: functional
experimental.conditions: MTCC 277, 48 h, read-out: IZ
Respond with the bare value in mm.

Record excerpt, results attached:
| substance.smiles | zone of inhibition at 50 µg/mL, mm |
| --- | --- |
| Cc1ccccc1C#CC#N | 0 |
| N#CC#Cc1cc(F)c(Cl)nc1Cl | 20 |

We next turn to a different molecule, shown below.
zone of inhibition at 50 µg/mL for N#CC#Cc1ccc(Cl)nc1 is 44

* * *

Tested on: Staphylococcus epidermidis
measurement.notes: Antibacterial activity against Staphylococcus epidermidis MTCC 435 by broth dilution method
Type: functional
Below, each entry is listed with its recorded MIC.

| substance.smiles | target.or.test.system | MIC |
| --- | --- | --- |
| CCOC(=O)C#CC(C)(C)C | Staphylococcus epidermidis | > 150 µg/mL |
| Cc1ccccc1C#CC#N | Staphylococcus epidermidis | > 150 µg/mL |
| N#CC#Cc1cccnc1Cl | Staphylococcus epidermidis | 50 µg/mL |

MIC for CCOC(=O)C(C(=O)c1ccc(Cl)nc1)=P(c1ccccc1)(c1ccccc1)c1ccccc1 is > 150 µg/mL

MIC for N#CC(C(=O)c1ccco1)=P(c1ccccc1)(c1ccccc1)c1ccccc1 is > 150 µg/mL

* * *

System: Candida albicans
measurement.notes: Antifungal activity against Candida albicans MTCC 227 at 100 ug/ml after 48 hrs by agar well diffusion method
Format: functional
experimental.conditions: MTCC 227, 48 h, read-out: IZ
measured.metric: zone of inhibition at 100 µg/mL (mm)
Respond with the bare value in mm.

| substance.smiles | scale.unit | zone of inhibition at 100 µg/mL |
| --- | --- | --- |
| CC(C)(C)C(=O)C(C#N)=P(c1ccccc1)(c1ccccc1)c1ccccc1 | mm | 0 |
| N#CC(C(=O)c1ccc(Cl)nc1)=P(c1ccccc1)(c1ccccc1)c1ccccc1 | mm | 0 |
| CCOC(=O)C#Cc1ccc(Cl)nc1 | mm | 20 |
| CC(C)OC(=O)C(C(=O)c1ccc(Cl)nc1)=P(c1ccccc1)(c1ccccc1)c1ccccc1 | mm | 0 |
| CCOC(=O)C(C(=O)c1ccc(Cl)nc1)=P(c1ccccc1)(c1ccccc1)c1ccccc1 | mm | 0 |

zone of inhibition at 100 µg/mL for CCOC(=O)C(C(=O)c1cc(F)c(Cl)nc1Cl)=P(c1ccccc1)(c1ccccc1)c1ccccc1 is 0

zone of inhibition at 100 µg/mL for N#CC#Cc1cc(F)c(Cl)nc1Cl is 16
